- SYSTEM: human ether-à-go-go-related gene (hERG) potassium channel (human, UniProt Q12809);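 note: peak tail current of the secondary pulse compared with the same well before compound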
- Sequence (Q12809 whole entry, looked up): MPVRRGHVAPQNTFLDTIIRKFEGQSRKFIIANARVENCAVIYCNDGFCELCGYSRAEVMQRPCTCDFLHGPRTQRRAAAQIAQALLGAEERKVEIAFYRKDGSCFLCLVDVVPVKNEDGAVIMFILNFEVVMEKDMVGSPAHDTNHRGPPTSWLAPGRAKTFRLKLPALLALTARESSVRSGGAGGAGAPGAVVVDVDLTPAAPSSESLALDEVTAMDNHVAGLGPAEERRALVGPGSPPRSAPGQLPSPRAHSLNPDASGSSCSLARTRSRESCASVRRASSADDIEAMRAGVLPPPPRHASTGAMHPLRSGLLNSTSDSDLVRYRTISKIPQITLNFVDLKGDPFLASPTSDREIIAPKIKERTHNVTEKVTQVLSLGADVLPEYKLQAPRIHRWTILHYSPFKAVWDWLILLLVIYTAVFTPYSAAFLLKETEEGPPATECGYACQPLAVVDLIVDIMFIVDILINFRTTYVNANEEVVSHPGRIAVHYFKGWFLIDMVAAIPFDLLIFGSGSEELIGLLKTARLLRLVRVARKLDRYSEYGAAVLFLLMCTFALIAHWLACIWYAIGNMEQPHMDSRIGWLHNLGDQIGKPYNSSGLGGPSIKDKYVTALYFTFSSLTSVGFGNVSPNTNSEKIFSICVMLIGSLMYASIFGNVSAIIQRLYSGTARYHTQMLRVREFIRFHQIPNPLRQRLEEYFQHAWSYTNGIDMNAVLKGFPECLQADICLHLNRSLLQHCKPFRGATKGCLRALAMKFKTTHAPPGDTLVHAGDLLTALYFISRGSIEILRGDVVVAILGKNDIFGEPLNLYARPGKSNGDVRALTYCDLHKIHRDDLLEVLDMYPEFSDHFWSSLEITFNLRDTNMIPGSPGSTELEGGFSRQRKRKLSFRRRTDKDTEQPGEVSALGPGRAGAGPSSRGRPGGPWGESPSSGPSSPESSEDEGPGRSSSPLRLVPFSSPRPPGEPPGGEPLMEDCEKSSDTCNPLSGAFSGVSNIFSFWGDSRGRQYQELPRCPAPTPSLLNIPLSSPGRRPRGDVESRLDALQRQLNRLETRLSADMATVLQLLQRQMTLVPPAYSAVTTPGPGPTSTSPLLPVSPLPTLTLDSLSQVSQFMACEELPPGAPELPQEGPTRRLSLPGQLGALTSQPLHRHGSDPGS
- METHOD_SUMMARY: primary screen, population patch clamp on CHO cells stably expressing hERG; higher = less effect of the substance
The campaign covered roughly 310,000 compounds. About 14,000 (4.5%) showed an effect of 50% or more. The effect is printed as a negative number. For the sample, strong results were picked, then their nearest neighbours and some compounds at random.
Tag: true if measured hERG current change (%, negative = inhibition) at 10uM is not below -20%, false if it is.

CCn1ncc(Br)c1C(=O)Nc1sc2c(c1C(=O)OC)CCC2: false

Okay, now this molecule:
Q: Does the molecule COc1ccc(/C=C/C(=O)N2CC(C)OC(C)C2)cc1OC (centres unmarked) have recorded hERG current change (%, negative = inhibition) at 10uM that is -20% or more?
Ans: true

Origin of measurements: paper PMC4336329
